Data provenance is patent US20230203185A1.

system.tested: T1, pCD163-SRCR4-7-huFc (porcine, UniProt Q2VL90 372-818, limits assumed)
T1 construct: also called pCD163:SRCR4-7-Fc; pCD163-SRCR4-7-Fc; not shown: human Fc (huFc)
protocol.summary: ELISA, periplasmic extract on coated antigen
measure.name: O.D. 450 (O.D. 450)
Use O.D. 450 as the unit, but write only the number.

What value of O.D. 450 has been recorded for this entry: VHH 016 (2H11) (VHH, Llama single domain antibody; also called 77(#16); VHCDR3 77(#16); not shown: tags: c-myc tag in periplasmic extract (ELISA, FACS); FLAG and His tags in purified VHH (SPR, infection assays)) VHH: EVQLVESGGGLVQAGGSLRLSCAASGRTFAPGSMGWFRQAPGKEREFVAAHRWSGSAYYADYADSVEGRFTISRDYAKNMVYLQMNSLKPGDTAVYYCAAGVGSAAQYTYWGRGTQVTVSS 4.15
